- TARGET_DESC: NAD-dependent protein deacetylase sirtuin-1 (Homo sapiens)
- Sequence (Q96EB6 whole entry): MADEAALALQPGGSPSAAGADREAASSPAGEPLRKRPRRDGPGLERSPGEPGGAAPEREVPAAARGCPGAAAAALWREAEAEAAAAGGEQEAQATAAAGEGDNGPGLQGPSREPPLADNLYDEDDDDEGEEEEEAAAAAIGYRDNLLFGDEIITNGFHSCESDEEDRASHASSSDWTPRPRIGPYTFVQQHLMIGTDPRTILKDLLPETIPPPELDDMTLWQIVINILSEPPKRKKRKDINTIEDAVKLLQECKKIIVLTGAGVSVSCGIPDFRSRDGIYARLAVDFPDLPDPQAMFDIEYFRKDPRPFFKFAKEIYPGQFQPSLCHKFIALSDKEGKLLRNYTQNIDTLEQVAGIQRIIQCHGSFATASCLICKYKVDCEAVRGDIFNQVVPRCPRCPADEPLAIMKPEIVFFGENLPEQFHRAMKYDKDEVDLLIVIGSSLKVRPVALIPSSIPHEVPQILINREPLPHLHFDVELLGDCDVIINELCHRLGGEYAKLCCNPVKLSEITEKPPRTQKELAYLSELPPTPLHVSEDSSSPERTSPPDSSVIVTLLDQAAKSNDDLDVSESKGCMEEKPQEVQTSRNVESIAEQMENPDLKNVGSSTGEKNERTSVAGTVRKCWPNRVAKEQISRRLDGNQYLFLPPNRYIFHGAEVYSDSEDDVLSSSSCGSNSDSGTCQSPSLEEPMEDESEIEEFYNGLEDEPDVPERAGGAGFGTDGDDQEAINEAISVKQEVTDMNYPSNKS
pIC50: −log10 of the molar value.
This section presents molecules with their documented pIC50 values.
MEASUREMENT_KIND: pIC50

MOLECULE: O=c1[nH]c(=S)[nH]c(-c2ccc(Br)cc2)c1Cc1c(O)ccc2ccccc12
TARGET_DESC: NAD-dependent protein deacetylase sirtuin-1 (Homo sapiens)
MEASUREMENT_KIND: pIC50
REPORTED_VALUE: 4.89
//
MOLECULE: Cc1ccc2[nH]c(=O)c(C=C3C(=O)NC(=S)NC3=O)cc2c1
TARGET_DESC: NAD-dependent protein deacetylase sirtuin-1 (Homo sapiens)
MEASUREMENT_KIND: pIC50
REPORTED_VALUE: 4.89
//
MOLECULE: O=C1NC(=S)NC(=O)C1=Cc1cc2ccccc2[nH]1
TARGET_DESC: NAD-dependent protein deacetylase sirtuin-1 (Homo sapiens)
MEASUREMENT_KIND: pIC50
REPORTED_VALUE: 5.22
//
MOLECULE: O=C1NC(=S)NC(=O)C1=Cc1cccc2ccccc12
TARGET_DESC: NAD-dependent protein deacetylase sirtuin-1 (Homo sapiens)
MEASUREMENT_KIND: pIC50
REPORTED_VALUE: 4.89
//
MOLECULE: NC(=O)c1ccccc1Nc1ccccc1 [ANILINOBENZAMIDE]
TARGET_DESC: NAD-dependent protein deacetylase sirtuin-1 (Homo sapiens)
MEASUREMENT_KIND: pIC50
REPORTED_VALUE: 4.77

---

- TARGET_DESC: NAD-dependent protein deacetylase sirtuin-1 (Homo sapiens, UniProt Q96EB6)
- PROCEDURE_TEXT: Activation of SIRT1
pEC50: −log10 of the molar value.
MEASUREMENT_KIND: pEC50

CHEM_SMILES: O=C(Nc1ccccc1-c1nc2ccccc2[nH]1)c1cnc2ccccc2n1
TARGET_DESC: NAD-dependent protein deacetylase sirtuin-1 (Homo sapiens, UniProt Q96EB6)
MEASUREMENT_KIND: pEC50
INEQUALITY_SIGN: =
REPORTED_VALUE: 6.52

CHEM_SMILES: O=C(Nc1ccccc1-c1nc2cccnc2s1)c1cc(N2CCNCC2)nc(-c2ccccc2)n1
TARGET_DESC: NAD-dependent protein deacetylase sirtuin-1 (Homo sapiens, UniProt Q96EB6)
MEASUREMENT_KIND: pEC50
INEQUALITY_SIGN: >
REPORTED_VALUE: 6.60

CHEM_SMILES: O=C(Nc1ccccc1-c1nc2cccnc2s1)c1cc(N2CCOCC2)nc(-c2ccccc2)n1
TARGET_DESC: NAD-dependent protein deacetylase sirtuin-1 (Homo sapiens, UniProt Q96EB6)
MEASUREMENT_KIND: pEC50
INEQUALITY_SIGN: >
REPORTED_VALUE: 6.60

CHEM_SMILES: CN(C)c1cccc(C(=O)Nc2ccccc2-c2nc3ncccc3o2)c1
TARGET_DESC: NAD-dependent protein deacetylase sirtuin-1 (Homo sapiens, UniProt Q96EB6)
MEASUREMENT_KIND: pEC50
INEQUALITY_SIGN: =
REPORTED_VALUE: 5.36

CHEM_SMILES: COc1ccc(C(=O)Nc2ccccc2-c2nc3ncccc3o2)cc1OC
TARGET_DESC: NAD-dependent protein deacetylase sirtuin-1 (Homo sapiens, UniProt Q96EB6)
MEASUREMENT_KIND: pEC50
INEQUALITY_SIGN: =
REPORTED_VALUE: 6.05

CHEM_SMILES: COc1ccc(C(=O)Nc2cccc(-c3nc4ncccc4o3)c2)cc1OC
TARGET_DESC: NAD-dependent protein deacetylase sirtuin-1 (Homo sapiens, UniProt Q96EB6)
MEASUREMENT_KIND: pEC50
INEQUALITY_SIGN: =
REPORTED_VALUE: 5.22

CHEM_SMILES: O=C(Nc1ccc(CN2CCNCC2)cc1-c1nc2ccccc2[nH]1)c1cnc2ccccc2n1
TARGET_DESC: NAD-dependent protein deacetylase sirtuin-1 (Homo sapiens, UniProt Q96EB6)
MEASUREMENT_KIND: pEC50
INEQUALITY_SIGN: =
REPORTED_VALUE: 6.40

CHEM_SMILES: O=C(Nc1nccs1)c1cccc2[nH]c(-c3cccc(C(F)(F)F)c3)nc12
TARGET_DESC: NAD-dependent protein deacetylase sirtuin-1 (Homo sapiens, UniProt Q96EB6)
MEASUREMENT_KIND: pEC50
INEQUALITY_SIGN: >
REPORTED_VALUE: 6.00

CHEM_SMILES: CN(C)c1cccc(C(=O)Nc2cccc(-c3nc4ncccc4o3)c2)c1
TARGET_DESC: NAD-dependent protein deacetylase sirtuin-1 (Homo sapiens, UniProt Q96EB6)
MEASUREMENT_KIND: pEC50
INEQUALITY_SIGN: =
REPORTED_VALUE: 4.60

CHEM_SMILES: O=C(Nc1ccccc1-c1nc2cccnc2s1)c1cc(NC[C@@H](O)CO)nc(-c2ccccc2)n1
TARGET_DESC: NAD-dependent protein deacetylase sirtuin-1 (Homo sapiens, UniProt Q96EB6)
MEASUREMENT_KIND: pEC50
INEQUALITY_SIGN: >
REPORTED_VALUE: 6.60
